tested on: T-47D breast; test: NCI-60 one-dose screen, 48 h; settings: 10 µM unless noted
This is part of a sample that, as a whole, favours compounds with a hit. Of some 83,000 tested, about 20% had one in any assay. Activity calls are given as the source filed them. Rule for the calls: active = growth percent below 10; inactive = the rest.
Tick one outcome: active, inactive

- CCCCCCCCCCCCCCCCC(=O)O.CCCCCCCCCCCCCCCCCC(=O)O.CCCCCCCCCCCCCCCCCC(=O)O.CCCCCCCCCCCCCCCCCC(=O)O.CCCCCCCCCCCCCCCCCC(=O)O.CO[CH-]OC12COC1CC(O)C1(C)C(O)C(OC(C)O)C3=C(C)C(OC(=O)C(O)C([NH-])c4ccccc4)CC(O)(C(OC(=O)c4ccccc4)C21)C3(C)C.[Cu+].[Zn].[Zn].[Zn].[Zn].[Zn] (stereo not given): inactive
- O=C1CCNC1: inactive
- CC[C@H](Nc1ncnc2nc[nH]c12)c1nc2cccc(NCc3ccc(C(=O)NO)o3)c2c(=O)n1-c1ccccc1: inactive
- CC#Cc1nc(Nc2cc(C)[nH]n2)c2ccccc2n1: active
- CC(C)OCC1CO1 (stereo not given): inactive
- Cc1c(O)c(N=Nc2ccc(C(=O)O)c(O)c2)c2ccccc2c1O: inactive

# fetch the recorded call for `Cc1ccc2c(c1)C(=O)CCS2` here inactive

###

system: KM12 colon; test: NCI-60 one-dose screen, 48 h; conditions: 10 µM unless noted
About 83,000 compounds went through this panel and 20% of them were active in at least one assay; those are over-represented in the sample as a whole. Calls of active or inactive are those of the source. How the source made its calls: active means growth percent below 10; inactive means the rest.
Pick one and only one: active, inactive

* COC(=O)C(C(=O)OC)C(Br)C(Br)C(Br)c1ccccc1 (stereo not given) | inactive
* O=C(/C=C/c1cccc(O)c1)c1cccc(-n2cc(-c3ccc(Cl)cc3)[nH]c2=O)c1 | active
* NC(CSC(c1ccccc1)(c1ccccc1)c1ccccc1)C(=O)NCC(=O)O (stereo not given) | inactive
* CCCCCCCCc1ccc(OCCOCC[N+](C)(C)CC)cc1 (tested in a mixture with another compound) | inactive

So what was the verdict on `COc1cc(CCNc2cnc3cc(N)cc(N)c3n2)cc(OC)c1` in this test? inactive

###

tested on: UO-31 renal; assay: NCI-60 one-dose screen, 48 h; details: 10 µM unless noted
About 83,000 compounds went through this panel and 20% of them were active in at least one assay; those are over-represented in the sample as a whole. Active and inactive are the calls of the source. Rule for the calls: active = growth percent below 10; inactive = the rest.
Choose the fitting class; nothing outside active, inactive is accepted.

• COC(=O)c1ccc2[nH]c(O)c(C(=Nc3ccc(N(C)C(=O)CN4CCN(C)CC4)cc3)c3ccc(N)cc3)c2c1 = inactive

For this molecule, state the assay outcome: `COc1cc(OC)cc(-c2ccc(-c3ccc(C(=N)N)cc3)s2)c1` active

# outcome recorded in this test, key = `O=c1[nH]c(=S)[nH]c(O)c1/C=C1\C=Nc2ccccc21` inactive

Which outcome was assigned to `COc1ccc(-c2nc(SCC(C)C)nc(Nc3ccccc3)c2C#N)cc1` in this test? inactive

Assay outcome for `COc1cc(-c2nn(-c3ccc(NC(=O)c4ccc(Cl)c(Cl)c4)cc3)cc2-c2ccncc2)ccc1Cl` : what was it? inactive

###

system: NCI-H522 lung; test: NCI-60 one-dose screen, 48 h (100 = growth as untreated, 0 = no growth, -100 = all killed); conditions: 10 µM
This is part of a sample that, as a whole, favours compounds with a hit. Of some 83,000 tested, about 20% had one in any assay.
Measured Property: growth (%)
Numbers only, in %.

Solved cases below.
• COc1nc(OC)nc(-c2cc(-c3cc(OC)c(OC)c(OC)c3)no2)n1 = 95.7
• C/C(=N\Nc1ccc(Cl)cn1)c1ccc2ccccc2n1 = 11.9
• O=C1C(=O)c2ccccc2C(O)=C1CCCc1ccc(Oc2ccccc2)cc1 = 57.9
• C#CCCCCCCC[C@@H]1OC(=O)[C@H]([C@@H](C)CC)NC(=O)[C@@H]([C@@H](C)CC)NC(=O)CC(=O)[C@@H]1C = 90.7
• CCN(CC)CCCNc1c2ccc(Cl)cc2nc2ccc(OC)cc12 = -52

Give me growth for each of these compounds, listed below.
1. CC(=O)/C(=C/c1ccc(-c2ccccc2)cc1)C(=O)c1ccccc1
2. COC1NC(Cl)=C(C#N)C(C#N)(C#N)C1(C)C (stereo unspecified)
3. CC(=O)N1N=C(c2ccc(Cl)cc2)CC1c1cn(-c2ccccc2)nc1-c1ccc([N+](=O)[O-])cc1 (stereo unspecified)
4. CCCCN(CCCC)CCCNc1c2c(nc3ccc(Cl)cc13)CCCC2
5. CCOc1nc(-c2ccccc2)cc2c(O)c(C(=O)N/N=C/c3ccccc3O)[nH]c(=O)c12

61.7
104
103
80.1
81.9

The following compounds each have a reported value; give each one's growth.
1. COC(=O)c1ccc(C(=Nc2ccc(N(C)C(=O)CN3CCN(C)CC3)cc2)c2c(O)[nH]c3ccc(C(=O)OC)cc23)cc1
2. CCCCCCCCC1OC1CCCCCCCC(=O)O (stereo unspecified)
3. CC1(C)NCCC[C@]2(C)[C@H]3CC=C4[C@@H]5C[C@](C)(COC(=O)c6ccccc6C(=O)O)CC[C@]5(C)CC[C@@]4(C)[C@]3(C)CC[C@@H]12
4. COc1ccc(Cn2cc3c(c2-c2ccccc2)CCc2cnoc2-3)cc1N
5. CCOc1ccccc1/C=N\N=C(N/N=C/c1ccccc1OCC)N/N=C/c1ccccc1OCC
6. Nc1nc2c(c3cnccc13)C(c1cccc(Br)c1)Cc1cnccc1-2 (stereo unspecified)

1: 19; 2: 97.7; 3: 79; 4: 33.8; 5: 1.5; 6: 3.33
